testedOn: Hexokinase-4 (Homo sapiens) + Glucokinase regulatory protein (Homo sapiens) (UniProt P35557+Q14397)
Sequence (P35557 whole entry, looked up): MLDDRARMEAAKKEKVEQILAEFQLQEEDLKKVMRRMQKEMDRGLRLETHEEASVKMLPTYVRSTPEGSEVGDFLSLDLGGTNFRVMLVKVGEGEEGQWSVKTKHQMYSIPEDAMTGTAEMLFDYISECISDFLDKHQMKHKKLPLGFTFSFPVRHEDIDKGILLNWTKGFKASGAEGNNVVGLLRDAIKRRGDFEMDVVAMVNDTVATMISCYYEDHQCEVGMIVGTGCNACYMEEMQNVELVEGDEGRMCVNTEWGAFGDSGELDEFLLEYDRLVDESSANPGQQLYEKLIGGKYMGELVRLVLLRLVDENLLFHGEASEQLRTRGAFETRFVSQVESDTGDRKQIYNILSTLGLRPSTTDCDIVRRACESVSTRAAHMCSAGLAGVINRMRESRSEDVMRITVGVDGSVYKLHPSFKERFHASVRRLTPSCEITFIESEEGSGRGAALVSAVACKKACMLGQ
Sequence (Q14397 whole entry, looked up): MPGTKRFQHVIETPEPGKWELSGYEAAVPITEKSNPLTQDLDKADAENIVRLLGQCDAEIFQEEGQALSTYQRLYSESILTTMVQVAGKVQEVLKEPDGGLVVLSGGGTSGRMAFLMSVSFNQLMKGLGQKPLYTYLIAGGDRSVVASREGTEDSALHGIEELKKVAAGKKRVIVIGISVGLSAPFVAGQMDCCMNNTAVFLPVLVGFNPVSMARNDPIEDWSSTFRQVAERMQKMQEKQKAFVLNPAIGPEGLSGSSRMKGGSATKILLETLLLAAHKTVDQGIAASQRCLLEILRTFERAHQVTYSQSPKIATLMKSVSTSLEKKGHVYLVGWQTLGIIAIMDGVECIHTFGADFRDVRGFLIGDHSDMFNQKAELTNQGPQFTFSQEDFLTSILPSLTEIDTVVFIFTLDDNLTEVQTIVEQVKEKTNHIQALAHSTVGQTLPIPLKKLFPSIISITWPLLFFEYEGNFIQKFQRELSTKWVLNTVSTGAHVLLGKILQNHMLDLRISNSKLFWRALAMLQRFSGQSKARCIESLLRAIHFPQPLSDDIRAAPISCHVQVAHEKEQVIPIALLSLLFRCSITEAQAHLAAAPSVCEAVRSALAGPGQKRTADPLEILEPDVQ
assayExplanation: qHTS assay for inhibitors of recombinant human GCK-GKRP interaction: Diaphorase-coupled assay (AID 743205)
conditionSet: G6PDH/diaphorase resorufin fluorescence; series mostly up to 57.5 µM
The source made the active and inactive calls. The call rests on the fitted dose curve; in most records, active means well fitted curve in the direction sought with a large enough effect; inconclusive means small, poorly fitted or top-dose-only effect, or another doubt; inactive means no such curve, though single readings can be large or run the other way.

{"columns": ["compound", "outcome"],
 "data": [
  ["O=C1c2ccccc2C(=O)c2c(NCCc3ccc(O)cc3)ccc(NCCc3ccc(O)cc3)c21", "inactive"],
  ["CCc1ccc(/C=C2/SC(=S)NC2=O)cc1", "inactive"],
  ["Oc1cc2c(c(Cl)c1O)CCNCC2c1ccccc1 (configuration not stated)", "inactive"],
  ["Cc1cccc(/C=C/c2ccccc2)n1", "inactive"],
  ["O=Nc1c(-c2c(O)[nH]c3ccccc23)[nH]c2ccccc12", "inactive"],
  ["CC[N+](CC)(CC)CC", "inactive"],
  ["CN1C2CCCC1CC(NC(=O)c1nn(C)c3ccccc13)C2 (configuration not stated)", "inactive"]
]}

----------
testedOn: Mitogen-activated protein kinase 10 (Mus musculus) (UniProt Q61831)
assayExplanation: JNK3 AlphaScreen Assay (AID 530);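 further: kinase came from lysate of stimulated human HepG2 cells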
conditionSet: JNK3 lysate, c-Jun phosphorylation; series mostly up to 57.1 µM
Records with an inconclusive call do not appear. Activity calls are given as the source filed them. Calls follow the shape of the dose curve; as a rule, active = well fitted curve in either direction with a large enough effect (not every such curve was filed as active); inconclusive = small, poorly fitted or top-dose-only effect, or another doubt; inactive = flat fitted curve, though single readings scatter.
Classes used: Y = active, N = inactive

{"columns": ["compound", "assignedLabel"],
 "data": [
  ["COc1ccccc1N1CCN(CCCCN2C(=O)CCC2=O)CC1", "N"],
  ["COc1cc(N)c(Cl)cc1C(=O)CCC1CCN(CCNS(C)(=O)=O)CC1", "N"],
  ["NC1(C(=O)O)CC(C(=O)O)C1 (stereo unspecified)", "N"],
  ["CS(=O)(=O)Nc1c(O)ccc2c1CCC[C@H]2C1=NCCN1", "N"],
  ["CNC(=O)[C@H]1O[C@H](n2cnc3c(NCc4cccc(I)c4)ncnc32)[C@@H](O)[C@@H]1O", "N"],
  ["CCS(=O)(=O)N(C)[C@@H]1c2cc(C#N)ccc2OC(C)(C)[C@H]1O", "N"],
  ["S=C(S)O[C@@H]1C[C@@H]2C[C@H]1[C@@H]1CCC[C@H]21", "N"],
  ["O=Nc1c(-c2c(O)[nH]c3ccccc23)[nH]c2ccccc12", "Y"],
  ["O=C(O)[C@H]1CN(CCCP(=O)(O)O)CCN1", "N"],
  ["O=C1CC[C@H](N2C(=O)c3ccccc3C2=O)C(=O)N1", "N"],
  ["N=C(N)SCCc1ccc(OCc2ccc([N+](=O)[O-])cc2)cc1", "N"]
]}

----------
assayExplanation: Confirmatory screen NINDS Rhodamine qHTS for Zika virus inhibitors (AID 1347161); further: nearly all actives have a fitted effect of over 60% in size
conditionSet: purified enzyme assay, Rhodamine110 substrate fluorescence, 15 min; series mostly up to 114 µM
Results filed as inconclusive are left out. Active and inactive are the calls of the source. The call rests on the fitted dose curve; in most records, active means well fitted inhibition curve with a large enough effect; inconclusive means small, poorly fitted or top-dose-only effect; inactive means no such curve, though single readings can be large or run the other way.
Classes used: 1 for active, 0 for inactive

{"columns": ["molecule", "assignedLabel"],
 "data": [
  ["CCOC(=O)O[C@H](C)OC(=O)C1N2C(=O)[C@H](NC(=O)[C@H](N)c3ccccc3)C2SC1(C)C (some centres undefined)", 0],
  ["Clc1ccc(-c2nn3c(COc4cccc(OCc5nnc6sc(-c7ccc(Cl)cc7)nn56)c4)nnc3s2)cc1", 1],
  ["N#C/C(=C\\c1ccc(Cl)cc1)c1nc(-c2cc3c(ccc4ccccc43)oc2=O)cs1", 0],
  ["O=C(OCC#CCSc1nnc(-c2cccc3ccccc23)o1)c1ccc(OC(F)(F)F)cc1", 0],
  ["Cc1c(Cl)cccc1NS(=O)(=O)c1ccc(NS(=O)(=O)c2ccc3c(c2)OCCO3)cc1", 1],
  ["CCS(=O)(=O)c1cccc(C(=O)Nc2ccc(-c3nc4ccccc4s3)c(O)c2)c1", 1],
  ["O=C(O[C@@H]1Cc2c(O)cc(O)cc2OC1c1ccc(O)c(O)c1)c1cc(O)c(O)c(O)c1 (some centres undefined)", 1],
  ["CCOC(=O)c1ccc(CN(Cc2ccccc2C)S(=O)(=O)c2ccc(F)c(C(=O)Nc3cccc(OC)c3)c2)cc1", 0],
  ["CC(C)c1nn2c(=O)cc(COC(=O)c3ccccc3NC(=O)c3cccc(Cl)c3)nc2s1", 0]
]}

----------
testedOn: Nuclear receptor subfamily 1 group I member 3 (Homo sapiens) (UniProt Q14994)
Sequence (Q14994 whole entry, looked up): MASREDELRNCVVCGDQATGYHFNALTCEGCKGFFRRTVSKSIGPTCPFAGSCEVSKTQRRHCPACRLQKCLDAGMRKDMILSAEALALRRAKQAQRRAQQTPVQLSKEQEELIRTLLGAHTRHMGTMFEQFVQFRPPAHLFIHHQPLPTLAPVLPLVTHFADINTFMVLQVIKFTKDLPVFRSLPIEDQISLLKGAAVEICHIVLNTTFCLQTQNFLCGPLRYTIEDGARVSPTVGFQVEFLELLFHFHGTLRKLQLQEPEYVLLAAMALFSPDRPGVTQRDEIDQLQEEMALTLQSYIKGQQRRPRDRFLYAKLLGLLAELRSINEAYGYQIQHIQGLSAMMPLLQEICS
assayExplanation: qHTS for Constitutive Androstane Receptor (CAR) Antagonist screened against the NCATS CANVASS Library (AID 1347372)
conditionSet: HepG2-hCAR-CYP2B6 luciferase, CITCO-stimulated antagonist mode; series mostly up to 46.1 µM
Results filed as inconclusive are left out. Activity calls are given as the source filed them. The call rests on the fitted dose curve; in most records, active means well fitted inhibition curve with a large enough effect; inconclusive means small, poorly fitted or top-dose-only effect; inactive means no such curve, though single readings can be large or run the other way. Numbered stars: 1 amine (or outer) side, 2 acyl side, 3 side chain; on linkers, the order of the positions; unused ones are H or OH. Square brackets hold non-standard residues; d marks the D form. Peptide text beside a SMILES is read from it. * marks the point of attachment. ξ: configuration not given here. X4 = O=C(C1CC2(c3ccc(O)cc3)c3ccccc3NC2N1[*:1])[*:2]; ξW = NC(Cc1c[nH]c2ccccc12)C(=O)O; ξY = NC(Cc1ccc(O)cc1)C(=O)O; Octanoyl = CCCCCCCC(=O)*
Classes used: true = active, false = inactive

{"columns": ["compound", "assignedLabel"],
 "data": [
  ["CCCCCCCCCCCCCCC[C@H](O)C[C@@H](O)C[C@@H](O)C[C@@H](O)C[C@@H](O)C[C@H]1CC=CC(=O)O1", "true"],
  ["CCCCCCCC(=O)N[C@@H](CC(C)C)C(=O)N[C@H](C=O)CCC(=O)O (Octanoyl-Leu-Glu-aldehyde)", "false"],
  ["C=C1/C=C\\C(CCC)=C\\c2csc(n2)C(C)NC(=O)C[C@@]2(CC(=O)O)CCC(=C)[C@H](C1)S2 (some centres undefined)", "false"],
  ["C[C@@H]1O[C@H](c2c(O)cc(O)c3c(=O)cc(-c4ccc(O)cc4)oc23)[C@H](O)[C@H](O)[C@H]1O", "false"],
  ["CC(O)/C=C/C1(O)C(C)(C)CC(O)CC1(C)O (centres undefined)", "false"],
  ["C=C(C)[C@@H]1CC[C@]2(C)CC[C@]3(C)[C@H](CC[C@@H]4[C@@]5(C)CC[C@H](O)C(C)(C)[C@@H]5CC[C@]43C)[C@@H]12", "false"],
  ["C/C=C1/CC[C@@H]2c3[nH]c4ccccc4c3CCN2C1", "false"],
  ["C[C@@H]1O[C@@H](O[C@@H]2[C@@H](O)[C@H](O[C@@H]3[C@@H](O)[C@@H](O)C(O[C@H]4[C@H](OC(=O)[C@]56CCC(C)(C)C[C@H]5C5=CCC7[C@@]8(C)C[C@H](O)[C@H](O[C@@H]9C[C@H](CO)[C@@H](O)[C@H](O)[C@H]9O)[C@@](C)(CO)C8[C@H](O)C[C@@]7(C)[C@]5(C)CC6)OC[C@H](O)[C@@H]4O)O[C@H]3C)OC[C@H]2O)[C@H](O)[C@H](O)[C@H]1O (some centres undefined)", "false"],
  ["COc1c(O)cc2oc(-c3ccccc3)cc(=O)c2c1O", "false"],
  ["CC(=O)NC[C@@H]1O[C@H](CC/C=C(C)/C(C)=C/C=O)[C@H](C)C[C@H]1O", "false"],
  ["O=Cc1ccc2n1C[C@@]1(C[C@H](O)[C@H](O)CO1)OC2", "false"],
  ["C[C@@H]1C(=O)[C@]23CC[C@H]1C[C@]21O[C@H]2C(C)(C)C=CC(=O)[C@]23COC1=O", "false"],
  ["COc1ccc(/C=C2\\COc3cc(O)ccc3C2=O)cc1", "false"],
  ["CC[C@@H]1C[C@@]2(CC)OC(=O)[C@@]3(CC)OC(=O)[C@@H]1[C@@H]23", "false"],
  ["C=C(C)CC[C@H](Cc1c(O)cc(O)c2c1O[C@H](c1ccc(O)cc1O)CC2=O)C(=C)C", "false"],
  ["O=C(O)[C@@]12CO[C@@]3(O)C4CCN(CC[C@H]31)[C@H]4c1c2[nH]c2ccccc12", "false"],
  ["CN1CC[C@]2(c3cccc4c3N[C@@H]3N(C)CC[C@]43[C@@]34CCN(C)[C@@H]3Nc3c([C@]56CCN(C)[C@H]5Nc5ccccc56)cccc34)c3ccccc3N[C@H]12", "true"],
  ["C=C[C@]1(C)CC[C@@H]([C@H](C)C(=O)/C=C/C(C)C)O1", "false"],
  ["C/C(=C\\[C@H](C)C(=O)CCCC1CC(=O)NC(=O)C1)C(O)[C@@H](C)[C@H](O)C/C=C/CC/C=C/C(=O)O (some centres undefined)", "false"],
  ["CC(=O)O[C@H]1CC[C@@]2(C)C(CC[C@]3(C)C2CC=C2C4CC(C)(C)CC[C@]4(C)CC[C@]23C)C1(C)C (some centres undefined)", "false"],
  ["CC1(C)C=Cc2c(ccc3c2OC[C@@H](c2ccc(O)cc2O)C3)O1", "false"],
  ["O=Cc1ccc2n1C[C@@]1(OC2)O[C@H](CO)[C@@H](O)[C@@H]1O", "false"],
  ["C=C(NC(=O)c1csc(-c2nc3c(cc2O)-c2nc(cs2)C(=O)NC(C(C)O)C(=O)N/C(=C(\\C)O)c2nc(cs2)C(=O)NC2c4nc(cs4)C(=O)NC(COC(=O)c4c5c6c(cccc6n4O)COC(=O)[C@@H](OC4C[C@](C)(O)[C@H](N(C)C)[C@H](C)O4)C2OC5)c2nc-3cs2)n1)C(N)=O (some centres undefined)", "false"],
  ["CC[C@H](C)[C@H](NC(=O)C(Cc1ccc(O)cc1)NC(=O)C(Cc1c[nH]c2ccccc12)NC(=O)[C@H](C)N)C(=O)N1C(C(=O)NC(Cc2ccc(O)cc2)C(=O)O)CC2(c3ccc(O)cc3)c3ccccc3NC12 (some centres undefined) (H-A[ξW][ξY]I[X4][ξY]-OH)", "false"],
  ["O=C(O)CC1OC(=O)c2c(O)cccc21 (centres undefined)", "false"],
  ["CCCCCC[C@H](CCCCC[C@@H](O)C(N)=O)OC(=O)[C@@H]1CC=CN1C(=O)c1ccccc1O", "false"],
  ["C[C@H]1C[C@@H]([C@@H]2CC[C@]34O[C@H](CC[C@@]35C[C@H](C)C(=O)O5)CN24)OC1=O", "false"],
  ["Oc1ccc([C@H]2Oc3ccc(/C=C/c4cc(O)cc(O)c4)cc3C2c2cc(O)cc(O)c2)cc1 (some centres undefined)", "false"],
  ["O=c1cc(-c2ccc(O)cc2)oc2c([C@@H]3OC(CO)[C@H](O)[C@@H](O)[C@H]3O)c(O)cc(O)c12 (some centres undefined)", "false"]
]}
